Molecular target: OsWOX13 (Oryza sativa, UniProt Q5QMM3 1-267)
Sequence: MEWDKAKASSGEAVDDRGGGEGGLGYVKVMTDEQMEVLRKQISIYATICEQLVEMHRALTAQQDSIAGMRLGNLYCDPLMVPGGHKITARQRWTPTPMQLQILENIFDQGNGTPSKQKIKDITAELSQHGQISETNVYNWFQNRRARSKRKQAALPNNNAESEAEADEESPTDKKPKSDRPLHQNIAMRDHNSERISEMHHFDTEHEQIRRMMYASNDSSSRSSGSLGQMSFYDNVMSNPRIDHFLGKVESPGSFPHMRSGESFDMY
Assay: protein-binding microarray (RPBM); PBS, 2% BSA, 51.3 ng/ul salmon testes DNA, 50 uM zinc acetate, 200 nM TF, 25 C, 1 h; high values mean tight binding
Details: protein: recombinant; tags: N-terminal polyhistidine and DsRed monomer fusion (pET32a); label: CyDye5-dUTP incorporated in the synthesized complementary strand; 3' TTTTT single-stranded linker to array surface; dsDNA, one strand shown
Over roughly 35,000 sequences, “fluorescence intensity (a.u.)” has its median near 10,000; the highest 2% begin near 52,000. For the sample, the highest values were picked, then their nearest neighbours and some sequences at random.
Overview of recorded binding signal for various sequences

Check out these entries, answers already filled in.
> print(dat)
                     macromolecule.sequence  observation.type                 recorded.measurement
1  AAGTGTTTGTAATTACTAAAATTTTGACATGAATTCAAATCGGAGTCACCTAGTGCAG    binding signal   8700 fluorescence intensity (a.u.)
2  CATGACATACAATTTATCAGATCCAATTTTAGGATTATTCCGGAGTCACCTAGTGCAG    binding signal  10900 fluorescence intensity (a.u.)
3  CAGGACTAATTGGGGTTGCAAACTGGGACTACAAACTACTCGGAGTCACCTAGTGCAG    binding signal  28300 fluorescence intensity (a.u.)

Query: binding signal; subject: `CTTAAACAAATGATAGTACGATCCCATCTGATTGGGTGTTCGGAGTCACCTAGTGCAG` 7540 fluorescence intensity (a.u.)

Would you mind telling me what binding signal value was observed for `ATATTGATGTTAATGAATCTAAATAGATATATATGTCTAGCGGAGTCACCTAGTGCAG` ? 5520 fluorescence intensity (a.u.)

Dear colleague, I am looking for the recorded binding signal of the following sequence: `CCAAATGATATAATCATGGCACATGGAGTACTGCTTAAGACGGAGTCACCTAGTGCAG` 9170 fluorescence intensity (a.u.)

Which binding signal value is on record for `ATAATTATTTAAATTATATGCATACACCTAGGTGCCATGGCGGAGTCACCTAGTGCAG` ? 38800 fluorescence intensity (a.u.)
